Provenance of the data: the supplement of paper PMC9112550

tested on: Escherichia coli TOP10; experiment: shrunken log2 fold change of peptide-encoding DNA abundance (4.5 h post-induction vs induction); higher = less antimicrobial activity (less host growth inhibition); conditions: time post-induction: 4.5 h; library: site-saturation at positions 5, 18, 19, 20
ASSAY_READOUT: shrunken log2 fold change
Enter a number only.

## Task Entry `RRIRMRPPRLPRPRPRPHRKPRP` , system Escherichia coli TOP10: what shrunken log2 fold change was measured?
## Result 0.0879

## Task Provide value of shrunken log2 fold change for this record tested with Escherichia coli TOP10: `RRIRARPPRLPRPRPRPQWSPRP`
## Result 0.245

## Task Lookup: shrunken log2 fold change / Escherichia coli TOP10 / `RRIRHRPPRLPRPRPRPHNRPRP`
## Result -0.0976

## Task Query for Escherichia coli TOP10: what shrunken log2 fold change does the record show for `RRIRARPPRLPRPRPRPIDLPRP` ?
## Result 0.289

## Task Notebook: pull reported shrunken log2 fold change for Escherichia coli TOP10, entry `RRIRPRPPRLPRPRPRPVQQPRP`
## Result 0.378

## Task Hi! What's the reported shrunken log2 fold change for `RRIRDRPPRLPRPRPRPEMSPRP` on Escherichia coli TOP10?
## Result 0.00748

## Task Can you look up shrunken log2 fold change on Escherichia coli TOP10 for `RRIRQRPPRLPRPRPRPHVCPRP` ?
## Result -0.0223

## Task Query shrunken log2 fold change on Escherichia coli TOP10 for `RRIRTRPPRLPRPRPRPEGAPRP`
## Result 0.783

## Task For Escherichia coli TOP10, provide shrunken log2 fold change of `RRIRFRPPRLPRPRPRPQIPPRP` please.
## Result -0.475

## Task GET /values?readout=shrunken log2 fold change&system=Escherichia coli TOP10&item= `RRIRDRPPRLPRPRPRPKDQPRP`
## Result -0.111

## Task Write down the reported shrunken log2 fold change of `RRIRRRPPRLPRPRPRPTPGPRP` , test system: Escherichia coli TOP10.
## Result 1.11

## Task Form field - read-out: shrunken log2 fold change; system: Escherichia coli TOP10; submitted item: `RRIRWRPPRLPRPRPRPFYIPRP`
## Result -0.632

## Task Write down the reported shrunken log2 fold change of `RRIRHRPPRLPRPRPRPNCTPRP` , test system: Escherichia coli TOP10.
## Result -0.142

## Task Item: `RRIRLRPPRLPRPRPRPAWMPRP` Test system: Escherichia coli TOP10 Read-out: shrunken log2 fold change Value: ?
## Result -0.0208

## Task Form: Entry = `RRIRTRPPRLPRPRPRPFAVPRP` | System = Escherichia coli TOP10 | shrunken log2 fold change = ____
## Result -0.0779

## Task What is its shrunken log2 fold change for Escherichia coli TOP10? Entry: `RRIRHRPPRLPRPRPRPWQHPRP`
## Result -0.0597

## Task Identify the measured shrunken log2 fold change of `RRIRDRPPRLPRPRPRPYHQPRP` for Escherichia coli TOP10.
## Result -0.0205

## Task Request - read-out shrunken log2 fold change | tested on Escherichia coli TOP10 | sequence `RRIRQRPPRLPRPRPRPYLNPRP`
## Result -0.329

## Task Record lookup: for Escherichia coli TOP10, what shrunken log2 fold change belongs to `RRIRVRPPRLPRPRPRPEWAPRP` ?
## Result 0.0253

## Task Request: shrunken log2 fold change, test system Escherichia coli TOP10, entry `RRIRPRPPRLPRPRPRPKCHPRP`
## Result 0.0622

## Task shrunken log2 fold change of `RRIRLRPPRLPRPRPRPLGMPRP` on Escherichia coli TOP10?
## Result 0.0609

## Task Lab note: need shrunken log2 fold change with Escherichia coli TOP10 for entry `RRIRFRPPRLPRPRPRPTAKPRP` , please look it up.
## Result 0.444

## Task Enter reported shrunken log2 fold change observed with Escherichia coli TOP10 for `RRIRIRPPRLPRPRPRPREEPRP`
## Result 0.0171

## Task // map `RRIRHRPPRLPRPRPRPTGKPRP` to recorded shrunken log2 fold change (system: Escherichia coli TOP10)
## Result -0.00448

## Task # get_value(readout= shrunken log2 fold change, system= Escherichia coli TOP10) for `RRIRIRPPRLPRPRPRPTGYPRP`
## Result -0.73

## Task Notebook entry, Escherichia coli TOP10 assay: shrunken log2 fold change of `RRIRIRPPRLPRPRPRPWPQPRP` = ?
## Result 0.0274

## Task Param readout= shrunken log2 fold change; system= Escherichia coli TOP10; entry= `RRIRPRPPRLPRPRPRPTQIPRP` ; returns value.
## Result 0.13

## Task Under Escherichia coli TOP10: shrunken log2 fold change value of `RRIRNRPPRLPRPRPRPNNNPRP` ?
## Result -0.867

## Task Param readout = shrunken log2 fold change; param system = Escherichia coli TOP10; param query = `RRIRFRPPRLPRPRPRPRKFPRP` ; response: value
## Result 0.171

## Task Give shrunken log2 fold change (Escherichia coli TOP10) of the following sequence: `RRIRARPPRLPRPRPRPAIHPRP`
## Result -0.223

## Task Any idea what shrunken log2 fold change came out for `RRIRARPPRLPRPRPRPTVQPRP` on Escherichia coli TOP10?
## Result 0.549

## Task Give recorded shrunken log2 fold change with Escherichia coli TOP10 for the following sequence: `RRIRSRPPRLPRPRPRPQITPRP`
## Result -0.457

## Task What shrunken log2 fold change appears in the records for this sequence with Escherichia coli TOP10? `RRIRVRPPRLPRPRPRPQINPRP`
## Result -0.0064

## Task Test system Escherichia coli TOP10; read-out shrunken log2 fold change; what value for `RRIRPRPPRLPRPRPRPMNEPRP` ?
## Result -0.0529

## Task Recall the recorded shrunken log2 fold change for `RRIRSRPPRLPRPRPRPLLEPRP` with Escherichia coli TOP10 and state it.
## Result 0.243

## Task Find the measured shrunken log2 fold change: item `RRIRERPPRLPRPRPRPVTWPRP` , target or system Escherichia coli TOP10.
## Result -0.165

## Task Notebook entry, Escherichia coli TOP10 assay: shrunken log2 fold change of `RRIRQRPPRLPRPRPRPPEQPRP` = ?
## Result 0.00242

## Task Quick check: shrunken log2 fold change on Escherichia coli TOP10, item `RRIRTRPPRLPRPRPRPYMLPRP` ?
## Result -1.13

## Task Lab note: need shrunken log2 fold change for `RRIRIRPPRLPRPRPRPRFAPRP` on Escherichia coli TOP10, anyone have it?
## Result 0.129

## Task Recorded shrunken log2 fold change for `RRIRQRPPRLPRPRPRPYWRPRP` with Escherichia coli TOP10, please?
## Result 0.0113

## Task Give recorded shrunken log2 fold change with Escherichia coli TOP10 for the following sequence: `RRIRVRPPRLPRPRPRPTLRPRP`
## Result 0.102

## Task Lab note: need shrunken log2 fold change for `RRIRLRPPRLPRPRPRPHIWPRP` on Escherichia coli TOP10, anyone have it?
## Result -0.278

## Task Entry `RRIRLRPPRLPRPRPRPWDLPRP` , system Escherichia coli TOP10: what shrunken log2 fold change was measured?
## Result -0.00277

## Task Checklist item: shrunken log2 fold change tested on Escherichia coli TOP10, entry `RRIRVRPPRLPRPRPRPACPPRP` , value?
## Result 0.311

## Task Checklist item: shrunken log2 fold change tested on Escherichia coli TOP10, entry `RRIRCRPPRLPRPRPRPHLAPRP` , value?
## Result -0.0147

## Task Find the measured shrunken log2 fold change: item `RRIRTRPPRLPRPRPRPRKSPRP` , target or system Escherichia coli TOP10.
## Result -0.0508

## Task Report shrunken log2 fold change for `RRIRFRPPRLPRPRPRPQICPRP` tested on Escherichia coli TOP10.
## Result -0.135

## Task Write down the reported shrunken log2 fold change of `RRIRERPPRLPRPRPRPTQKPRP` , test system: Escherichia coli TOP10.
## Result 0.337

## Task shrunken log2 fold change of `RRIRARPPRLPRPRPRPSCPPRP` on Escherichia coli TOP10?
## Result 0.131

## Task Request - read-out shrunken log2 fold change | tested on Escherichia coli TOP10 | sequence `RRIRIRPPRLPRPRPRPESFPRP`;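 note: peptides expressed intracellularly from a pBAD plasmid library in pooled LB shake-flask culture, induced with 0.3% L-arabinose, DNA abundance read by NGS, three biological replicates, DESeq2 with apeglm shrinkage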
## Result -0.0048

## Task For Escherichia coli TOP10, provide shrunken log2 fold change of `RRIRHRPPRLPRPRPRPQRDPRP` please.
## Result 0.000147
